assay-remarks: chemical genetic growth profiling, strain panel (AID 1159580);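 also: tested at 20 µM; growth read once vehicle control cultures reached saturation at 30 °C; 1 = growth at the plate median or of vehicle wells; lower values mean less growth of the strain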
experimental-context: S. cerevisiae deletion strains, growth OD, locus YML094W, strain GIM5, stronger effect = lower value
Hit rate of the full screen: of about 5,500 compounds, about 2,000 (36%) were called active. Inconclusive results (about 18%) are left out. The list shows a part of the results.
property-measured: normalized growth

- given-smiles: "C/C(=N/O)c1ccc2c(c1)C(C)(C)CCC2(C)C"
  recorded-measurement: 0.992
- given-smiles: "N#CCC(=O)N(Cc1ccccc1F)C(=O)NC1CCCCC1"
  recorded-measurement: 0.996
- given-smiles: "Cc1cc(S(=O)(=O)NCCNc2nccc(C(F)(F)F)n2)c(C)cc1Cl"
  recorded-measurement: 0.992
- given-smiles: "CC(=O)Nc1ccc(S(=O)(=O)NCCCN2CCN(Cc3ccccc3)CC2)cc1Cl"
  recorded-measurement: 1.01
- given-smiles: "COC(=O)c1cc(OC)c(OC)cc1NC(=O)Nc1cc(Cl)cc(Cl)c1"
  recorded-measurement: 0.998
- given-smiles: "Cc1c(C)c(C)c(S(=O)(=O)Nc2ccccc2N)c(C)c1C"
  recorded-measurement: 1
- given-smiles: "COc1ccccc1N1CC(C)(C)C(=O)N(C(=O)c2c(F)cccc2Cl)C1=S"
  recorded-measurement: 1
- given-smiles: "Cc1cc2c(cc1C)CSC(C)(c1ccc(F)cc1)SC2"
  recorded-measurement: 1.01
